test_description: DPPH radical scavenging assay
measurement_conditions: 2 µg mL^−1
measurement_type: DPPH percent radical scavenging (%)

                                   molecule                 measurement_type  experimental_result
0    OCc1ccc(C=NNc2nc(-c3ccccc3)cs2)o1 [2j]  DPPH percent radical scavenging                9.057
1  OCc1ccc(C=NNc2nc(-c3ccc(-c4ccccc4)cc3)cs2)o1 [2e]  DPPH percent radical scavenging                4.621
2  OCc1ccc(C=NNc2nc(-c3ccc(F)cc3)cs2)o1 [2d]  DPPH percent radical scavenging                1.848
3  OCc1ccc(C=NNc2nc(-c3ccc(Cl)cc3)cs2)o1 [2k]  DPPH percent radical scavenging                6.470
4  O=[N+]([O-])c1cccc(-c2csc(NN=Cc3ccc(CO)o3)n2)c1 [2m]  DPPH percent radical scavenging               11.275
5  Cc1ccc(-c2csc(NN=Cc3ccc(CO)o3)n2)cc1 [2g]  DPPH percent radical scavenging                4.067
